Every entry's value here was drawn from the NIST ThermoML archive (doi:10.1016/j.jct.2011.11.025).

Exercise: for every item that follows, state its recorded activity coefficient.
- PROCEDURE_SUMMARY: activity coefficient (dimensionless); of the first substance listed, at infinite dilution; xn = mol fraction of the nth substance listed
- CONDITION_DETAILS: 368.15 K; Liquid; Chromatography; x1 = 0
Answers are plain numbers.

Solved entries (count: 2):
{"COMPOUND": "CCCCO [butan-1-ol] + CCCCCCn1cc[n+](C)c1.N#C[B-](C#N)(C#N)C#N", "activity coefficient": 1.01}
{"COMPOUND": "C1CCCCCCC1 [cyclooctane] + CCCCCCn1cc[n+](C)c1.N#C[B-](C#N)(C#N)C#N", "activity coefficient": 7.57}

I have 4 compounds here; please give me activity coefficient for each one.
1. CCc1ccccc1 [ethylbenzene] + CCCCCCn1cc[n+](C)c1.N#C[B-](C#N)(C#N)C#N
2. CCC(=O)CC [pentan-3-one] + CCCCCCn1cc[n+](C)c1.N#C[B-](C#N)(C#N)C#N
3. CCCCCCCCCC [decane] + CCCCCCn1cc[n+](C)c1.N#C[B-](C#N)(C#N)C#N
4. CCC(C)(C)C [2,2-dimethylbutane] + CCCCCCn1cc[n+](C)c1.N#C[B-](C#N)(C#N)C#N

1: 1.49; 2: 0.569; 3: 29.3; 4: 8.69

// for each compound in input: emit activity coefficient
1. CCO [ethanol] + CCCCCCn1cc[n+](C)c1.N#C[B-](C#N)(C#N)C#N
2. C1CCCCCC1 [cycloheptane] + CCCCCCn1cc[n+](C)c1.N#C[B-](C#N)(C#N)C#N

1. 0.761
2. 6.21

Looking up O [water] + CCCCCCn1cc[n+](C)c1.N#C[B-](C#N)(C#N)C#N , I found its activity coefficient recorded as 1.33
